Hey, just so you know, these numbers are from PubChem BioAssay (NCI).

Test system: PC-3 prostate
experimentDescription: NCI-60 one-dose screen, 48 h (100 = growth as untreated, 0 = no growth, -100 = all killed)
conditionContext: 10 µM unless noted
About 83,000 compounds went through this panel and 20% of them were active in at least one assay; those are over-represented in the sample as a whole. Activity calls are given as the source filed them. Rule for the calls: active = growth percent below 10; inactive = the rest.
measuredQuantity: growth

Query: Item under review: Cc1nnc2nc(N)[nH]n2c1=O . Reported growth?
Reply: 98% (inactive)

Query: Same thing, different molecule: Nc1nc(Br)nc2c1ncn2C1CC(O)C(CO)O1 (stereo not given)
Reply: 70.1% (inactive)

Query: Same thing, different molecule: COc1ccc(/C=C(\C#N)c2cc3ccccc3n2C(C)=O)cc1
Reply: 84.6% (inactive)

Query: Same thing, different molecule: Cc1cc(C)c(NC(=O)c2sc3nc4c(cc3c2N)CCCC4)c(C)c1
Reply: 54% (inactive)

Query: Same thing, different molecule: CCCCC[C@H]1CC=C2C(=O)C=C[C@@H]2CC=CCCCC(=O)O[C@@H](CCCCC)CC=C2C(=O)C=C[C@@H]2CC=CCCCC(=O)O[C@@H](CCCCC)CC=C2C(=O)C=C[C@@H]2CC=CCCCC(=O)O1
Reply: -15.7% [8.75 µM] (active)

Query: Same thing, different molecule: C/C(=N/NC(N)=S)C(=O)O
Reply: 72.8% (inactive)

Query: Same thing, different molecule: C=C1CC[C@@H](C(=O)OC)Cc2nc(C)ccc21
Reply: 98.4% (inactive)

Query: Same thing, different molecule: Fc1ccc2[nH]cc(-c3nc(-c4c[nH]c5ncccc45)cs3)c2c1
Reply: 43.8% (inactive)

Query: Same thing, different molecule: Cc1ccc(-c2nc([P+](c3ccccc3)(c3ccccc3)c3ccccc3)c(N3C[C@H]4C[C@H](C3)c3cccc(=O)n3C4)o2)cc1
Reply: 82.7% (inactive)

Query: Same thing, different molecule: NC(N)=N/N=C/c1ccc(-c2ccc(-c3ccc(Cl)cn3)s2)cc1
Reply: -42.3% (active)
